# assayRemarks: Metal chelating activity of compound assessed as compound-Cu2+ complex formation at 0.5 mM after 10 mins in presence of CuSO4.5H2O by complexometric indicator murexide based UV-Vis spectrophotometric analysis
# Type: physicochemical
# assayConditions: 500 µM
Note to self: values exactly at 70% are MET. So Activity at or above 70% is MET, below is NOT MET.

Consider the following illustrative entries.
1. Cl.Cl.NCC(N)CCCCNC(=O)CCn1cccc(OCc2ccccc2)c1=O (stereo unspecified)	NOT MET
2. Cl.Cl.NCC(N)CCCCNC(=O)c1cc(O)c(O)c(O)c1 (stereo unspecified)	MET
3. COc1cc(/C=C/C(=O)N2CCN(C(=O)CCC(N)CN)CC2)ccc1O.Cl.Cl (stereo unspecified)	NOT MET
4. CCCCN1CCN(C(=O)C(N)CN)CC1.Cl.Cl (stereo unspecified)	NOT MET

--- query ---
Q: State whether the measured Activity reaches 70%, counting equality as reaching it, for Cl.Cl.NCC(N)CCC(=O)N1CCN(C(=O)c2cc(O)c(O)c(O)c2)CC1 (stereo unspecified)
A: MET

###

Task for the reader: assign each of the following molecules its reported Activity.
# assayRemarks: Metal chelating activity of compound assessed as compound-Cu2+ complex formation at 2 mM after 10 mins in presence of CuSO4.5H2O by complexometric indicator murexide based UV-Vis spectrophotometric analysis
# Format: physicochemical
# assayConditions: 2000 µM
Answers are plain numbers, in %.

Examples from the recorded data:
1. CC(C)(C)OC(=O)NCC(CCCCNC(=O)CCn1cccc(O)c1=O)NC(=O)OC(C)(C)C.Cl.Cl (configuration not stated)	94.72
2. Cl.Cl.NCC(N)CC(=O)N1CCN(C(=O)CCn2cccc(O)c2=O)CC1 (configuration not stated)	78.98

Hi team, please reply with Activity for each item in this list.
1. Cl.Cl.NCC(N)CCCCNC(=O)c1cc(O)c(O)c(O)c1 (configuration not stated)
2. Cl.Cl.NCC(N)CCCCNC(=O)CCn1cccc(OCc2ccccc2)c1=O (configuration not stated)
3. Cc1c(O)c(=O)ccn1CCCNC(=O)CCC(N)CN.Cl.Cl (configuration not stated)
4. Cl.Cl.NCC(N)CCC(=O)N1CCN(C(=O)CCn2cccc(O)c2=O)CC1 (configuration not stated)
5. NCCN [ETHYLENEDIAMINE]

A:
[88.48, 67.84, 95.45, 76.53, 100]

Hi team, please reply with Activity for each item in this list.
1. CCCCN1CCN(C(=O)C(N)CN)CC1.Cl.Cl (configuration not stated)
2. COc1cc(/C=C/C(=O)N2CCN(C(=O)CCC(N)CN)CC2)ccc1O.Cl.Cl (configuration not stated)
3. Cl.Cl.NCC(N)CCCNC(=O)CCn1cccc(O)c1=O (configuration not stated)
4. COc1cc(/C=C/C(=O)NCCCCC(N)CN)ccc1O.Cl.Cl (configuration not stated)
5. NCCC(=O)N[C@@H](Cc1cnc[nH]1)C(=O)O [CARNOSINE]

A:
1: 62.53; 2: 81.81; 3: 76.75; 4: 59.06; 5: 41.7

Hi team, please reply with Activity for each item in this list.
1. Cc1c(O)c(=O)ccn1CCC(=O)NCCCCC(N)CN.Cl.Cl (configuration not stated)
2. Cl.Cl.NCC(N)C(=O)N1CCNCC1 (configuration not stated)
3. Cl.Cl.NCC(N)CCC(=O)NCCCn1cccc(O)c1=O (configuration not stated)
4. Cl.Cl.NCC(N)CCC(=O)N1CCN(C(=O)c2cc(O)c(O)c(O)c2)CC1 (configuration not stated)
5. Cl.Cl.NCC(N)CCCCNC(=O)CCn1cccc(O)c1=O (configuration not stated)

A:
1. 97.73
2. 62.15
3. 74.74
4. 76.14
5. 87.04

###

# assayRemarks: Metal chelating activity of compound assessed as compound-Cu2+ complex formation at 0.08 mM after 10 mins in presence of CuSO4.5H2O by complexometric indicator murexide based UV-Vis spectrophotometric analysis
# Format: physicochemical
# assayConditions: 80 µM
outcomeMeasure: Activity (%)
Give bare numbers, in %.

Examples from the recorded data:
1) Cl.Cl.NCC(N)CCC(=O)NCCCn1cccc(O)c1=O (stereo unspecified)	37.47
2) CC(C)(C)OC(=O)NCC(CCCCNC(=O)CCn1cccc(O)c1=O)NC(=O)OC(C)(C)C.Cl.Cl (stereo unspecified)	30.19
3) Cl.Cl.NCC(N)CCC(=O)N1CCN(C(=O)c2cc(O)c(O)c(O)c2)CC1 (stereo unspecified)	22.88
4) Cl.Cl.NCC(N)CCCCNC(=O)CCn1cccc(OCc2ccccc2)c1=O (stereo unspecified)	19.27
5) COc1cc(/C=C/C(=O)N2CCN(C(=O)CCC(N)CN)CC2)ccc1O.Cl.Cl (stereo unspecified)	22.44

Okay, now this compound:
Q: Activity lookup needed for Cl.Cl.NCC(N)C(=O)N1CCNCC1 (stereo unspecified) , thanks.
A: 10.65

###

# assayRemarks: Reactive carbonyl species trapping activity of compound assessed as MGO adduct formation at 10 mM preincubated for 24 hrs with MGO measured after 24 hrs by LCMS analysis
# Assay type: physicochemical
# assayConditions: 10000 µM
outcomeMeasure: Activity (%)
Answers are plain numbers, in %.

Examples from the recorded data:
1) Cl.Cl.NCC(N)CCCNC(=O)CCn1cccc(O)c1=O (stereo not drawn)	98
2) Cl.Cl.NCC(N)CC(=O)N1CCN(C(=O)CCn2cccc(O)c2=O)CC1 (stereo not drawn)	99

Hi team, please reply with Activity for each item in this list.
1. CCCCN1CCN(C(=O)C(N)CN)CC1.Cl.Cl (stereo not drawn)
2. Cl.Cl.NCC(N)CCC(=O)N1CCN(C(=O)CCn2cccc(O)c2=O)CC1 (stereo not drawn)
3. Cc1c(O)c(=O)ccn1CCCNC(=O)CCC(N)CN.Cl.Cl (stereo not drawn)
4. Cl.Cl.NCC(N)CCC(=O)N1CCN(C(=O)c2cc(O)c(O)c(O)c2)CC1 (stereo not drawn)
5. Cc1c(O)c(=O)ccn1CCC(=O)NCCCCC(N)CN.Cl.Cl (stereo not drawn)
6. Cl.Cl.NCC(N)CCC(=O)NCCCn1cccc(O)c1=O (stereo not drawn)
7. Cl.Cl.NCC(N)CCCCNC(=O)CCn1cccc(O)c1=O (stereo not drawn)
8. Cl.Cl.NCC(N)CCCCNC(=O)c1cc(O)c(O)c(O)c1 (stereo not drawn)

A:
1. 100
2. 98
3. 100
4. 100
5. 100
6. 98
7. 100
8. 95

Hi team, please reply with Activity for each item in this list.
1. COc1cc(/C=C/C(=O)NCCCCC(N)CN)ccc1O.Cl.Cl (stereo not drawn)
2. Cl.Cl.NCC(N)C(=O)N1CCNCC1 (stereo not drawn)
3. NCCC(=O)N[C@@H](Cc1cnc[nH]1)C(=O)O [CARNOSINE]

A:
[100, 82, 59]

###

# assayRemarks: Reactive carbonyl species trapping activity of compound assessed as MDA adduct formation at 10 mM preincubated for 24 hrs with MDA measured after 5 hrs by LCMS analysis
# Type: physicochemical
# assayConditions: 10000 µM
Task for the reader: assign each of the following compounds its reported Activity.
Answers are plain numbers, in %.

Examples from the recorded data:
1) Cl.Cl.NCC(N)C(=O)N1CCNCC1 (stereo not drawn)	100
2) NCCC(=O)N[C@@H](Cc1cnc[nH]1)C(=O)O	38
3) Cl.Cl.NCC(N)CC(=O)N1CCN(C(=O)CCn2cccc(O)c2=O)CC1 (stereo not drawn)	92
4) Cl.Cl.NCC(N)CCCCNC(=O)c1cc(O)c(O)c(O)c1 (stereo not drawn)	87
5) Cl.Cl.NCC(N)CCC(=O)N1CCN(C(=O)c2cc(O)c(O)c(O)c2)CC1 (stereo not drawn)	69
6) Cl.Cl.NCC(N)CCCCNC(=O)CCn1cccc(O)c1=O (stereo not drawn)	73

Hi team, please reply with Activity for each item in this list.
1. Cl.Cl.NCC(N)CCCNC(=O)CCn1cccc(O)c1=O (stereo not drawn)
2. Cc1c(O)c(=O)ccn1CCC(=O)NCCCCC(N)CN.Cl.Cl (stereo not drawn)
3. COc1cc(/C=C/C(=O)NCCCCC(N)CN)ccc1O.Cl.Cl (stereo not drawn)
4. Cl.Cl.NCC(N)CCC(=O)N1CCN(C(=O)CCn2cccc(O)c2=O)CC1 (stereo not drawn)
5. CCCCN1CCN(C(=O)C(N)CN)CC1.Cl.Cl (stereo not drawn)
6. Cc1c(O)c(=O)ccn1CCCNC(=O)CCC(N)CN.Cl.Cl (stereo not drawn)
7. Cl.Cl.NCC(N)CCC(=O)NCCCn1cccc(O)c1=O (stereo not drawn)

A:
1. 75
2. 89
3. 24
4. 85
5. 77
6. 95
7. 85

###

# assayRemarks: Metal chelating activity of compound assessed as compound-Cu2+ complex formation at 1 mM after 10 mins in presence of CuSO4.5H2O by complexometric indicator murexide based UV-Vis spectrophotometric analysis
# Assay type: physicochemical
# assayConditions: 1000 µM
Note to self: values exactly at 80% are Met. So Activity at or above 80% is Met, below is Not met.

1. Cl.Cl.NCC(N)CCCNC(=O)CCn1cccc(O)c1=O (stereo unspecified)	Not met

Q: State whether the measured Activity reaches 80%, counting equality as reaching it, for CC(C)(C)OC(=O)NCC(CCCCNC(=O)CCn1cccc(O)c1=O)NC(=O)OC(C)(C)C.Cl.Cl (stereo unspecified)
A: Met

Q: State whether the measured Activity reaches 80%, counting equality as reaching it, for NCCC(=O)N[C@@H](Cc1cnc[nH]1)C(=O)O
A: Not met

Numbers sourced from ChEMBL document CHEMBL3865830.
